The origin of these recorded values is paper PMC6203815.

# tgt: Pfs48/45 6C domain (NF54) (Plasmodium falciparum NF54, UniProt V5NSK3)
measured.endpoint: binding result

GET /value?item= HC2-LC3 (antibody, V domains shown) VH: EVQLVESGGGLVQPGGSLRLSCAASGFTFNNYWMSWVRQAPGKGLEWVASISNIGGTIYYPDSVKGRFTISRDSAKNSLYLQMNSLRAEDTAVYYCTRDLRMSDYFDYWGQGTLVTVSS VL: QFMLTQPHSVSESPGKTVTISCTRSTGNIGSNYVSWYQQRPGSAPTTVIYRDDQRPSGVPDRFSGSIDRSSNSASLTISRLKTEDEADYYCHSYSTGMYIFGGGTKLTVL &field=binding result returns binds

GET /value?item= HC1-LC3 (antibody, V domains shown) VH: EVQLVESGGGLVQPGGSLRLSCAASGFTFNNYWMSWVRQAPGKGLEWVASISNIGGTIYYPDSVKGRFTISRDNAKNSLYLQMNSLRAEDTAVYYCTRDLRMSDYFDYWGQGTLVTVSS VL: QFMLTQPHSVSESPGKTVTISCTRSTGNIGSNYVSWYQQRPGSAPTTVIYRDDQRPSGVPDRFSGSIDRSSNSASLTISRLKTEDEADYYCHSYSTGMYIFGGGTKLTVL &field=binding result returns binds
